recorded_metric: melting point

Look up melting point: Cc1nnc(NC(=O)c2ccc(C(F)(F)F)c3c2CCC(C)S3)o1 (centres unmarked)
182 to 183 °C

Same read-out for Cn1nnnc1NC(=O)c1ccc(C(F)(F)F)c2c1C(F)CCS2(=O)=O (centres unmarked) ?
220 to 223 °C

Same read-out for CCOC1CS(=O)(=O)c2c(C(F)(F)F)ccc(C(=O)Nc3nnnn3C)c21 (centres unmarked) ?
209 to 211 °C

Same read-out for Cn1nnnc1NC(=O)c1ccc(C(F)(F)F)c2c1CCCS2(=O)=Nc1ccc(Cl)cc1 (centres unmarked) ?
113 to 114 °C

Same read-out for CC1CCc2c(C(=O)Nc3nnnn3C)ccc(C(F)(F)F)c2/S1=N/C#N (centres unmarked) ?
117 to 120 °C

* * *

Can you tell me melting point for the items I'm about to list?

Look up melting point: Cn1nnnc1NC(=O)c1ccc(C(F)(F)F)c2c1C(O)CS2(=O)=O (stereo not shown)
202 to 205 °C

Same read-out for Cn1nnnc1NC(=O)c1ccc(C(F)(F)F)c2c1CCCS2 ?
166 to 167 °C

Same read-out for Cn1nnnc1NC(=O)c1ccc(C(F)(F)F)c2c1C(Br)CS2(=O)=O (stereo not shown) ?
209 to 211 °C

Same read-out for Cn1nnnc1NC(=O)c1ccc(C(F)(F)F)c2c1CCCS2(=O)=Nc1ccccc1 (stereo not shown) ?
110 to 112 °C

Same read-out for COc1ccc(N=S2(=O)CCCc3c(C(=O)Nc4nnnn4C)ccc(C(F)(F)F)c32)cc1 (stereo not shown) ?
123 to 124 °C

Same read-out for COC1CSc2c(C(F)(F)F)ccc(C(=O)Nc3nnnn3C)c2C1 (stereo not shown) ?
168 to 170 °C

Same read-out for CC1CCc2c(C(=O)Nc3nnnn3C)ccc(C(F)(F)F)c2S1(=O)=O (stereo not shown) ?
270 to 271 °C

* * *

recorded_metric: melting point

Look up melting point: Cn1nnnc1NC(=O)c1ccc(C(F)(F)F)c2c1CCCS2(=O)=NC#N (centres unmarked)
151 to 153 °C

Same read-out for COC1CS(=O)(=O)c2c(C(F)(F)F)ccc(C(=O)Nc3nnc(C)o3)c21 (centres unmarked) ?
206 to 207 °C

Same read-out for COCC1Cc2c(C(=O)Nc3nnnn3C)ccc(C(F)(F)F)c2S1(=O)=O (centres unmarked) ?
215 to 217 °C

Same read-out for Cn1nnnc1NC(=O)c1ccc(C(F)(F)F)c2c1C(F)CCS2 (centres unmarked) ?
132 to 135 °C

Same read-out for COC1Cc2c(C(=O)Nc3nnnn3C)ccc(C(F)(F)F)c2S(=O)(=O)C1 (centres unmarked) ?
226 to 228 °C
